All values here come from PubChem BioAssay (NCI).

Tested on: HCC-2998 colon
Experiment: NCI-60 one-dose screen, 48 h
Details: 10 µM
About 83,000 compounds went through this panel and 20% of them were active in at least one assay; those are over-represented in the sample as a whole. Active and inactive are the calls of the source. How the source made its calls: active means growth percent below 10; inactive means the rest.
Outcomes: Y (active), N (inactive)

INSERT INTO measurements (molecule, cat) VALUES
  ('CC(Oc1ccc(Cl)cc1)c1ccccc1 (configuration not stated)', 'N'),
  ('COc1cc(/C=C/C(=O)c2cc(-c3ccc(F)cc3)ccc2O)cc(OC)c1OC', 'N'),
  ('COc1cc(-c2cc(-c3cc(OC)c(OC)c(OC)c3)nc3nc(N)[nH]c(=O)c23)ccc1Oc1ccnc2cc(Cl)ccc12', 'N'),
  ('Cc1ccc(/C=C2\CN(Cc3cn(CCNc4ccnc5cc(Cl)ccc45)nn3)C/C(=C\c3ccc(C)cc3)C2=O)cc1', 'Y'),
  ('COc1cc(-c2cc(-c3ccc(C)cc3)nc3nc(N)[nH]c(=O)c23)ccc1Oc1ccnc2cc(Cl)ccc12', 'N'),
  ('O=C(O)c1ccc(CNc2ccc(C(=O)CCl)cc2)cc1', 'N'),
  ('Cc1ccc(-c2cc(C(=O)Nc3ccc(S(=O)(=O)N4CCCCC4)cc3)[nH]n2)c(O)c1', 'N');
